Would you mind telling me the reported pKd of each entry?
Target: T1, retinoblastoma protein pocket domain (Rb^P), wild type (human, UniProt P06400 380-788)
T1 construct: also called WT Rb^P; WT
T1 sequence (looked up): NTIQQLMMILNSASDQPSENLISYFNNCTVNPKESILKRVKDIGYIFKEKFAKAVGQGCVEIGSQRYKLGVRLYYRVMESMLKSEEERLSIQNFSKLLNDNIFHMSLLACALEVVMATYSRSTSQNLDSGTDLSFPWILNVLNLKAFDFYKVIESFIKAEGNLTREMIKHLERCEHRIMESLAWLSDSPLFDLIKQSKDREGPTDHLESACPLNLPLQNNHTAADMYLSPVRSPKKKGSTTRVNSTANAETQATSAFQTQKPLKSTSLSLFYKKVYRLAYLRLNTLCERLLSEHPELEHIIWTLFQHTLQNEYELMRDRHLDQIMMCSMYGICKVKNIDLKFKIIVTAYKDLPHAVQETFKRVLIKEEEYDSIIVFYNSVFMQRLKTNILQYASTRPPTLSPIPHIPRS
Experiment: fluorescence polarisation; 25 °C; unlabeled Rb^P titrated against 1.5 nM TMR-E2F1^TD or 7.5 nM TMR-E7^LxCxE; 25 mM Tris pH 8.0, 200 mM NaCl, 1 mM DTT, 0.1% Tween-20; 2 min incubation; quadratic fit; apparent Kd for the variants, Kd for WT
Settings: both partners purified
No end group written: not given here. TMR = tetramethyl rhodamine dye
Worth noting: pKd values are minus log10 of concentrations stated in mol/L.

Item: DLYCYEQLN (also: TMR label, position not given here, source: synthetic peptide, bought: GenScript) [TMR-E7^LxCxE, LxCxE peptide of the E7 oncoprotein from HPV] | pKd: 8.30

Item: {TMR}-GEGIRDLFDCDFGDLTPLD (also called E2F^TD; source: synthetic peptide, bought: GenScript) [TMR-E2F1^TD, peptide of the E2F1 transactivation domain] | pKd: 7.85
